Biological target: recombinant human NF-kappaB-inducing kinase (NIK/MAP3K14) (Homo sapiens, UniProt Q99558)
Sequence (Q99558 whole entry): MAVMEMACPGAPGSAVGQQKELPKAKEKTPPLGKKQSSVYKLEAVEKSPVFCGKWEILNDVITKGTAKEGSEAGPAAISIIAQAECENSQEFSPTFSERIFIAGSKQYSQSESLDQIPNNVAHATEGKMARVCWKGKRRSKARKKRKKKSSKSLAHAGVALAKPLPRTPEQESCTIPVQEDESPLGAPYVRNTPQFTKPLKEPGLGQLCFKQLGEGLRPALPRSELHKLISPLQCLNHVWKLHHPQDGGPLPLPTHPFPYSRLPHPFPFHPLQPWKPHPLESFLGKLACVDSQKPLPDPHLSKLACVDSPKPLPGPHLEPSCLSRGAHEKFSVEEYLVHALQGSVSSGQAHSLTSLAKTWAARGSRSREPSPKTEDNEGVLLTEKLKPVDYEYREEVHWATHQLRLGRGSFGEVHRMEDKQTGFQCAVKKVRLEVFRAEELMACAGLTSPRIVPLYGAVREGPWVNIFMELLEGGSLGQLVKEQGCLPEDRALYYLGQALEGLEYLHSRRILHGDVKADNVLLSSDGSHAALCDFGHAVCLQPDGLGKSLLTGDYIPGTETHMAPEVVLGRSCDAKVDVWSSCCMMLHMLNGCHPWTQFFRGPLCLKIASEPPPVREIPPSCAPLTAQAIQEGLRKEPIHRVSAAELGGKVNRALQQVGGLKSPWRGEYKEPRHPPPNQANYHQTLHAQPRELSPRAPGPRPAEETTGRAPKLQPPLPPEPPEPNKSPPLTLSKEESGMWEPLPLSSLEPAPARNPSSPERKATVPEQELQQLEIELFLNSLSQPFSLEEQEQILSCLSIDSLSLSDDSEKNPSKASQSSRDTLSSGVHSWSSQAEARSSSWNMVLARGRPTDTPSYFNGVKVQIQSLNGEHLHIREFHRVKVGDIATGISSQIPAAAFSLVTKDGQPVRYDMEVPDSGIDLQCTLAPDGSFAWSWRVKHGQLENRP
Assay: Biological Assay B: inhibition of auto-phosphorylation of recombinant human NIK/MAP3K14 (AlphaScreen), performed at 2 locations
Format: biochemical
Settings: location 1; AlphaScreen auto-phosphorylation; averaged values; read-out: Assay B location 1 IC50
Experimental: Inhibition of Auto-Phosphorylation of Recombinant Human NF-kappaB-Inducing Kinase (NIK/MAP3K14) Activity (AlphaScreen®) NIK/MAP3K14 auto-phosphorylation activity was measured using the AlphaScreen® (αscreen) format (Perkin Elmer). All compounds tested were dissolved in dimethyl sulfoxide (DMSO) and further dilutions were made in assay buffer. […] Protein A Acceptor and Glutathione-Donor beads were added before reading using an EnVision® Multilabel Plate Reader (Perkin Elmer). […]
Reported log10 IC50 by item:
observedProperty: log10 IC50 (log10 of the value in µM)

In [3]: df
Out[3]:
                                    compound    val
 0  CN1CCC(Oc2ccc(Cl)cc2Nc2nccc(-c3cnc4c(c3)C(C)(CO)CN4)n2)CC1 (stereo not shown)  -2.07
 1  COc1cc(N)c(Cl)cc1Nc1nccc(-c2cnc3c(c2)C(C)(CO)CN3)n1 (stereo not shown)  -2.21
 2  COc1cc(S(C)(=O)=O)c(F)cc1Nc1nccc(-c2cnc3c(c2)C(C)(CO)CN3)n1 (stereo not shown)  -2.27
 3  COc1cc(N2CCN(C3CC3)CC2)c(Cl)cc1Nc1nccc(-c2cnc3c(c2)C(C)(CO)CN3)n1 (stereo not shown)  -2.17
 4  CN(C)CCOc1cc(N2CCOCC2)c(F)cc1Nc1nccc(-c2cnc3c(c2)C(C)(CO)CN3)n1 (stereo not shown) [Compound 370]   0.21
 5  COc1cc(N2CCN(C)CC2)c(C#N)cc1Nc1nccc(-c2cnc3c(c2)C(C)(CO)CN3)n1 (stereo not shown)  -2.16
 6  COc1cc(N2CC(OC)C2)c(F)cc1Nc1nccc(-c2cnc3c(c2)C(C)(CO)CN3)n1 (single isomer, unassigned) [Compound 288]  -0.95
 7  COc1cc(N2CC3(CCOCC3)C2)c(F)cc1Nc1nccc(-c2cnc3c(c2)C(C)(CO)CN3)n1 (single isomer, unassigned) [Compound 7R]  -1.15
 8  COc1cc(N2CCOCC2)c(C#N)cc1Nc1nccc(-c2cnc3c(c2)C(C)(CO)CN3)n1 (single isomer, unassigned) [Compound 4R]  -1.26
 9  COc1cc(N2CCN(C)CC2)c(F)cc1Nc1nccc(-c2cnc3c(c2)C(C)(CO)CN3)n1 (stereo not shown)  -1.99
10  COc1c(Nc2nccc(-c3cnc4c(c3)C(C)(CO)CN4)n2)cc(Cl)cc1N1CCOCC1 (stereo not shown)  -1.91
11  Cc1cc(C(=O)NC2CCOCC2)ccc1Nc1nccc(-c2cnc3c(c2)C(C)(CCC#N)CN3)n1 (stereo not shown)  -1.50
12  Cc1cc(N2CCOCC2)c(F)cc1Nc1nccc(-c2cnc3c(c2)C(C)(CO)CN3)n1 (single isomer, unassigned) [Compound 255]  -1.99
13  CC1(CO)CNc2ncc(-c3ccnc(Nc4cc(Cl)c(N5CCOCC5)cc4Cl)n3)cc21 (single isomer, unassigned) [Compound 265]  -1.32
14  CC1(CO)CNc2ncc(-c3ccnc(Nc4cc(C#N)c(N5CCOCC5)cc4Cl)n3)cc21 (stereo not shown) [Compound 364]  -1.99
15  COc1cc(N2CC(OC)C2)c(F)cc1Nc1nccc(-c2cnc3c(c2)C(C)(CO)CN3)n1 (single isomer, unassigned) [Compound 298]  -2.09
16  COc1cc(OC2CCN(C)C2)ccc1Nc1nccc(-c2cnc3c(c2)C(C)(CO)CN3)n1 (stereo not shown)  -1.34
17  CC1(CO)CNc2ncc(-c3ccnc(Nc4ccccc4S(C)(=O)=O)n3)cc21 (stereo not shown)   0.60
18  COc1cc(C(=O)NC2CCOCC2)c(Cl)cc1Nc1nccc(-c2cnc3c(c2)C(C)(CO)CN3)n1 (stereo not shown)  -2.34
19  COc1cc(C(=O)NC2CCOCC2)c(Cl)cc1Nc1nccc(-c2cnc3c(c2)C(C)(C)CN3)n1  -2.49
20  CCN1CCN(c2cc(OC)c(Nc3nccc(-c4cnc5c(c4)C(C)(CO)CN5)n3)cc2Cl)CC1 (stereo not shown) [Compound 268]  -2.35
21  COc1cc(C(=O)N2CCC(OC)C2)c(Cl)cc1Nc1nccc(-c2cnc3c(c2)C(C)(C)CN3)n1 (stereo not shown)  -2.37
22  COc1cc(N2CC3(CCOCC3)C2)ccc1Nc1nccc(-c2cnc3c(c2)C(C)(CO)CN3)n1 (stereo not shown)  -1.45
23  COc1cc(N2CCOCC2)c(F)cc1Nc1nccc(-c2cnc3c(c2)C(C)(CO)CN3)n1 (single isomer, unassigned) [Compound 253]  -0.99
24  COc1cc(N2CCC(OC)C2)c(Cl)cc1Nc1nccc(-c2cnc3c(c2)C(C)(CO)CN3)n1 (stereo not shown)  -2.11
25  CN(C)CCOc1cc(N2CCOCC2)c(Cl)cc1Nc1nccc(-c2cnc3c(c2)C(C)(CO)CN3)n1 (stereo not shown) [Compound 371]  -0.36
26  CCN1CCN(c2cc(OC)c(Nc3nccc(-c4cnc5c(c4)C(C)(CO)CN5)n3)cc2Cl)CC1 (single isomer, unassigned) [Compound 295]  -1.91

The reported numbers originate from patent US11236084B2.
